measureName: melting point

Solved entries:
{"compound": "COc1cccc(C(=O)Nc2ccc(C(=O)c3ccccc3)cc2)c1", "valueMeasured": "139 to 141 °C"}
{"compound": "COc1ccc(C2=NN(C3CCN(C(C)=O)CC3)C(=O)C3CC=CCC23)cc1Cl (centres undefined)", "valueMeasured": "206 to 208 °C"}
{"compound": "CCCOc1ccc(OC)cc1-c1ncc(C(=O)OCC)c(=O)[nH]1", "valueMeasured": "124 to 126 °C"}

# next compound below
For this compound ( Cc1nc2cccc(OCC(C)(C)NC(=O)CC(C)C)c2c(N)c1C(=O)O ), measured melting point is 195 to 198 °C

###

Measured melting point by item

Solved entries:
{"molecule": "COC1(c2cccc(OCc3ccc(-n4cnc(-c5ccccc5)c4)cc3)c2)CCOCC1", "measureName": "melting point", "valueMeasured": "98 to 100 °C"}
{"molecule": "Cc1cc(O)c(SCc2ccc(Cl)cc2Cl)c(=O)o1", "measureName": "melting point", "valueMeasured": "163 to 164 °C"}
{"molecule": "CCc1cc2[nH]c(=O)c(=O)[nH]c2cc1Cl", "measureName": "melting point", "valueMeasured": "> 315 °C"}

For this molecule ( COc1ccccc1SCC(=O)NCCCCCC(=O)O ), measured melting point is 95 to 97 °C

For this molecule ( CC(c1oc2ccccc2c(=O)c1-c1cccc(F)c1)n1nc(-c2ccc3cn[nH]c3c2)c2c(N)ncnc21 (stereo unspecified) ), measured melting point is 206 to 208 °C

For this molecule ( N#Cc1ccc(CNC(=O)c2ccc(C=O)cc2)cc1 ), measured melting point is 170 °C

###

Measured melting point by item

Solved entries:
{"compound": "OC1c2ccccc2COc2ccc(-c3nnn[nH]3)cc21 (centres undefined)", "measureName": "melting point", "valueMeasured": "335 °C"}
{"compound": "CC(C)(C)[Si](OCCOc1ccc([N+](=O)[O-])cn1)(c1ccccc1)c1ccccc1", "measureName": "melting point", "valueMeasured": "63 to 64 °C"}
{"compound": "CNc1c(NCCCCc2ncc(Br)cc2C)c(=O)c1=O", "measureName": "melting point", "valueMeasured": "190 to 191 °C"}
{"compound": "CCCCC(=O)c1cc(C(=O)O)c2cc(Cc3ccc(F)cc3)cnc2c1O", "measureName": "melting point", "valueMeasured": "227 to 229 °C"}
{"compound": "COc1ccc(S(=O)(=O)N(C)c2ccc(Cl)cc2C(O)c2ccccc2Cl)cc1OC (centres undefined)", "measureName": "melting point", "valueMeasured": "173 °C"}

For this compound ( c1ccc(-c2nnc3cc(-c4cccnc4)c(OCc4ccccn4)nn23)cc1 ), measured melting point is 206 °C

For this compound ( COCC1CN(c2ccc(C3CCC(OC(C)=O)CC3)cc2)C(=O)O1 (racemic) ), measured melting point is 78 to 79 °C

For this compound ( CC1OC(n2cc(F)c(NC(=O)OC3CCCCC3)nc2=O)C(O)C1O (centres undefined) ), measured melting point is 134 to 136 °C

For this compound ( C#Cc1ccnc(-c2ccc(-c3ccccc3C#C)c([N+](=O)[O-])c2)c1 ), measured melting point is 144 to 146 °C

###

Measured melting point by item

Solved entries:
{"molecule": "CCNC(=O)Nc1cnc2ccc(-c3ccc(N)c(OC)c3)nc2n1", "melting point": "> 310 °C"}
{"molecule": "CC(C)(C)c1cc(CC(C)(C)C2SCCS2)cc(C(C)(C)C)c1O", "melting point": "119 °C"}

For this molecule ( OC(CCc1ccc(Cl)s1)Cn1ccnc1 (stereo not drawn) ), measured melting point is 82 to 84.5 °C

For this molecule ( CC(C)c1nn(-c2ccc(C(F)(F)F)cc2)cc1CCCOc1ccccc1CC(=O)O ), measured melting point is 89 to 90 °C

For this molecule ( CN(c1cccc(C(F)(F)F)c1)c1cc(Oc2cccc(C(F)(F)F)c2)ncn1 ), measured melting point is 118 to 119 °C

For this molecule ( O=C(O)c1ccc2cc(-c3ccc(CC(O)CO)c(C45CC6CC(CC(C6)C4)C5)c3)ccc2c1 (stereo not drawn) ), measured melting point is 258 °C

For this molecule ( Cc1nc(-n2cnn(CCOc3ccc(F)cc3)c2=O)sc1C(=O)NCc1cccnc1 ), measured melting point is 154 to 155 °C

For this molecule ( CCN(CC)c1ccc(/C=C/C(=O)CC(=O)/C=C/c2ccc3cc[nH]c3c2)cc1 ), measured melting point is 110 to 118 °C
